Target: T1, human PD-L1 expressed on CHO cells (human, UniProt Q9NZQ7 19-290)
T1 construct: whole, on cells; Target on CHO cells stably expressing PD-L1; also called huPD-L1
T1 sequence (Q9NZQ7 19-290): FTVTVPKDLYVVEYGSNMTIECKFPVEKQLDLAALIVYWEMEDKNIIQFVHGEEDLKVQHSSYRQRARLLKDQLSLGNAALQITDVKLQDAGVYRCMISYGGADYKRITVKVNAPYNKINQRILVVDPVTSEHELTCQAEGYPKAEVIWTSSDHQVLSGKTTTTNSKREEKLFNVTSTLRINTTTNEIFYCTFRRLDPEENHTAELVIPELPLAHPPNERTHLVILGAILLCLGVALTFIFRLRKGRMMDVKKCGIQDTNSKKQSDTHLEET
Test: flow cytometry, CHO cells stably expressing PD-L1; MFI relative to WT CD80 ECD-Fc (Abcam)
We begin with a simple list: items and their reported Fold change to WT CD80.

| BINDER | Fold change to WT CD80 |
| --- | --- |
| CD80 M47V/N48K/V68M IgV-Fc (Fc fusion, not shown: small tags and cut ends; a dimerising Fc or GST) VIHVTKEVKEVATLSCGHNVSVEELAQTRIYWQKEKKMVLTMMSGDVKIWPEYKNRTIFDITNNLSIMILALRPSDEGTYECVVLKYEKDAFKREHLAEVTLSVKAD | 113 fold |
| CD80 E35D/D46V/M47V/V68M/L85Q IgV-Fc (Fc fusion, not shown: small tags and cut ends; a dimerising Fc or GST) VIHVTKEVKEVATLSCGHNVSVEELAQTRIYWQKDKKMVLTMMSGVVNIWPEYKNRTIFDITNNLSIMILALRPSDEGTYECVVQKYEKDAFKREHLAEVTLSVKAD | 205 fold |
| CD80 E35D/M47V/N48K/V68M/L85Q IgV-Fc (Fc fusion, not shown: small tags and cut ends; a dimerising Fc or GST) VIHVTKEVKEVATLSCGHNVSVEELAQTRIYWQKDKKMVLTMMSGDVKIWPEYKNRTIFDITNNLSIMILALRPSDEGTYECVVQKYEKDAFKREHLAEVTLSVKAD | 81.9 fold |
| CD80 E35D/D46V/M47V/N48K/V68M IgV-Fc (Fc fusion, not shown: small tags and cut ends; a dimerising Fc or GST) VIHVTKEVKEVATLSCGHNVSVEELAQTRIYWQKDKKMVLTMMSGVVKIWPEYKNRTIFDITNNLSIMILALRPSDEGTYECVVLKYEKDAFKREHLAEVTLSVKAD | 203 fold |
| CD80 E35D/N48K/K89N IgV-Fc (Fc fusion, not shown: small tags and cut ends; a dimerising Fc or GST) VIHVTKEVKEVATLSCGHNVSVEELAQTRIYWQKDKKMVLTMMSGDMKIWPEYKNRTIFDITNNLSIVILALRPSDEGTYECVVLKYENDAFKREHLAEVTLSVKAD | 45 fold |
